# STUDY_SYSTEM: ALPHA-2A ADRENERGIC RECEPTOR (Homo sapiens (Human))
# TEST_METHOD_NOTES: Gi recruitment (G protein)
# Format: cell-based
# TEST_SETTINGS: Gi recruitment, Table 6; read-out: EC50
Counter-ions that a name gives are not always drawn.
Field: label. Allowed values: Met (EC50 < 90 nM) or Not met (EC50 >= 90 nM).

1. COc1ccc2c(Nc3ccncc3)cccc2c1    Met
2. O=C1NCCc2c(Nc3ccncc3)cccc21    Not met
3. Cc1cc2c(Nc3ccncc3)cccc2cn1    Not met
4. Fc1cccc2c(Nc3ccncc3)cccc12    Met
5. Fc1cccc2c(Nc3ccncc3)cncc12    Not met

Say whether its EC50 is strictly beneath 90 nM. Entry: Clc1ccc2cccc(Nc3ccncc3)c2c1 [PS75, TFA] Met

# strict comparison: is reported EC50 < 90 nM? input = `COc1cccc2c(Nc3ccncc3)cncc12` Not met

Could you please tell me whether EC50 recorded for `O=C1CCc2c(cccc2Nc2ccncc2)N1` is less than 90 nM? Not met

Given the entry `Cc1cc(Nc2ccncc2)c2ccccc2n1` , would its reported EC50 be below 90 nM? Not met

Does `CN1C(=O)CCc2c(Nc3ccncc3)cccc21` have EC50 strictly under 90 nM? Met

Does the reported EC50 of the following compound sit strictly below 90 nM? `Clc1ncc2ccccc2c1Nc1ccncc1` Met

----------
# STUDY_SYSTEM: ALPHA-2A ADRENERGIC RECEPTOR (Homo sapiens (Human))
# TEST_METHOD_NOTES: Arrestin recruitment
# Assay type: cell-based
# TEST_SETTINGS: Tables 7-9
Exercise: for every item that follows, state its recorded Emax.

1) NC1CCc2ccc(C3=CCCNC3)cc21 (stereo not shown)    < 5%

Provide Emax for all items below, preserving their order.
1. C1=C(c2cccc3ncncc23)CNCC1
2. C1=C(c2ccc3c(c2)CC3)CNCC1
3. Nc1ccc(-c2cc3cn[nH]c3cc2Cl)cn1
4. Nc1ccc(-c2cc3cn[nH]c3cc2F)cn1
5. Nc1ccc(-c2cc(Cl)c3[nH]ncc3c2)cn1
6. Nc1ccc(-c2cc(C(F)(F)F)c3[nH]ncc3c2)cn1
7. Cc1cc2[nH]ncc2cc1-c1ccc(N)nc1
8. N#Cc1ccc(C2=CCCNC2)c2cccnc12

1: < 10%; 2: < 5%; 3: < 10%; 4: < 10%; 5: < 10%; 6: < 10%; 7: < 10%; 8: < 10%

Please report Emax for every entry that follows.
1. COc1cc2[nH]ncc2cc1-c1ccc(N)nc1
2. Nc1ccc(-c2cc([N+](=O)[O-])c3[nH]ncc3c2)cn1
3. O=C1CCc2ccc(C3=CCCNC3)cc21
4. Nc1ccc(-c2cc3cn[nH]c3cc2[N+](=O)[O-])cn1

< 10%
< 10%
< 10%
< 10%

----------
Assign EC50 to each entry below.
# STUDY_SYSTEM: ALPHA-2A ADRENERGIC RECEPTOR (Homo sapiens (Human), UniProt P08913)
# Sequence (P08913 whole entry): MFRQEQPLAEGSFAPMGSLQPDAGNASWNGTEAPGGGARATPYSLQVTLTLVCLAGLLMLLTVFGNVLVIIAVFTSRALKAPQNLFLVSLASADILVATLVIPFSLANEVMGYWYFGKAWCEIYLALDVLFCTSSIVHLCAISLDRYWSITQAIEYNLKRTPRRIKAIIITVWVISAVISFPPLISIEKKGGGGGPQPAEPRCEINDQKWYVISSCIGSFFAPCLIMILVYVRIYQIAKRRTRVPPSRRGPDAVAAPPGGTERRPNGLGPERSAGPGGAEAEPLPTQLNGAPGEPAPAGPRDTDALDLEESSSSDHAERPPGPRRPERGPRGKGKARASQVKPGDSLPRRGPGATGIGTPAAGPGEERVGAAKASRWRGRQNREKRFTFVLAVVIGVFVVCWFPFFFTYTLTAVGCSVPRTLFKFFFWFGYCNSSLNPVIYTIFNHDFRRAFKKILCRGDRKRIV
# TEST_METHOD_NOTES: Gi recruitment (G protein)
# Type: cell-based
# TEST_SETTINGS: Gi recruitment, Tables 7-9; read-out: G protein EC50
Dear colleague, please send the value followed by its unit.

Give measured EC50 for every item shown.
1. Nc1ncccc1-c1ccc2scnc2c1 [Compound 8723, 3-(Benzo[d]thiazol-5-yl)pyridin-2-amine]
2. C1=C(c2cccc3c2CCC3)CNCC1
3. Nc1ccc(Nc2ccccn2)cc1Cl

1. 1300 nM
2. 390 nM
3. 460 nM

Okay, here is my list. What is EC50 for each of these?
1. Cc1coc2ccc(C3=CCCNC3)cc12
2. Nc1ccc(-c2ccc3[nH]ncc3c2F)cn1
3. Nc1ccc(-c2cc3cn[nH]c3cc2Cl)cn1
4. Nc1ccc(-c2cc([N+](=O)[O-])c3[nH]ncc3c2)cn1
5. Nc1ccc(-c2ccc3[nH]ncc3c2Cl)cn1
6. C=C(c1ccccc1)c1c(F)ccnc1N
7. Nc1ccc(-c2cc3cn[nH]c3cc2F)cn1
8. C=C(c1ccccc1)c1cccnc1N

1: 170 nM; 2: 1100 nM; 3: 200 nM; 4: 3200 nM; 5: 220 nM; 6: 7300 nM; 7: 89 nM; 8: 2600 nM
